Where do the numbers come from? From PubChem BioAssay AID1159580.

measurement-notes: chemical genetic growth profiling, strain panel (AID 1159580);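 note: tested at 20 µM; growth read once vehicle control cultures reached saturation at 30 °C; 1 = growth at the plate median or of vehicle wells; lower values mean less growth of the strain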
recorded-conditions: S. cerevisiae deletion strains, growth OD, locus YPL031C, strain PHO85
In all, about 5,500 compounds went through this assay and about 2,000 (36%) were called active. Roughly 18% stayed inconclusive and do not appear here. Cut-off read from the data, not from the text of the source: active = normalized growth mostly below about 0.91 (no sharp cut-off); inconclusive = no clear call, values can overlap the other calls; inactive = mostly above about 0.92. Some of the results follow.
Outcomes: 1 (active), 0 (inactive)

                                    compound  label_value
 0  FC(F)(F)Sc1ccc(OCc2n[nH]c(=S)n2-c2ccccc2)cc1            0
 1  N/C(=N/OC(=O)c1ccc([N+](=O)[O-])cc1)c1c(Cl)cccc1Cl            0
 2  O=C(Nc1ccccc1C(=O)O)OCC1c2ccccc2-c2ccccc21            0
 3         O=C1Nc2ccccc2/C1=C\c1cccc2ccccc12            0
 4  O=C(NC(=S)NNc1ncc(C(F)(F)F)cc1Cl)c1cccs1            1
 5  N/C(=N/OC(=O)c1cnn(-c2ccc([N+](=O)[O-])cc2)c1C(F)(F)F)c1ccc(Cl)cc1            0
 6  COc1ccccc1N1CCN(C(=O)C(C)c2ccc(CC(C)C)cc2)CC1 (configuration not stated)            0
 7  Clc1cccc(Cl)c1C1CC(c2ccccc2)=Nc2ccccc2S1 (configuration not stated)            0
 8  O=C(OCc1ccccc1Br)c1cc([N+](=O)[O-])cc([N+](=O)[O-])c1            0
 9    O=C1/C(=C/c2c[nH]c3ccccc23)CSc2ccccc21            0
10                   CCCCCCCCCCCCSc1ncn[nH]1            1
11  N#Cc1nccnc1N1CCN(C(=O)Nc2cc(Cl)cc(Cl)c2)CC1            0

====

measurement-notes: chemical genetic growth profiling, strain panel (AID 1159580);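 note: tested at 20 µM; growth read once vehicle control cultures reached saturation at 30 °C; 1 = growth at the plate median or of vehicle wells; lower values mean less growth of the strain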
recorded-conditions: S. cerevisiae deletion strains, growth OD, locus YHR200W, strain rpn10
Hit rate of the full screen: of about 5,500 compounds, about 2,000 (36%) were called active. Not shown: some 18% with an inconclusive outcome. Cut-off read from the data, not from the text of the source: active = normalized growth mostly below about 0.91 (no sharp cut-off); inconclusive = no clear call, values can overlap the other calls; inactive = mostly above about 0.92. The list shows a part of the results.
Outcomes: 1 (yes) (active), 0 (no) (inactive)

                                    compound  label_value
 0  CC(=O)O[C@@H]1c2c(ccc3ccc(=O)oc23)OC(C)(C)[C@@H]1OC(=O)CC(C)C       0 (no)
 1    CC(=O)N1CCCC1C(=O)O (stereo not given)       0 (no)
 2  CCC(=O)OCC(=O)C1(OC(=O)CC)C(C)CC2C3CCC4=CC(=O)C=CC4(C)C3(Cl)C(O)CC21C (stereo not given)       0 (no)
 3                                     NCCCN       0 (no)
 4                                    NCCCCN       0 (no)
 5  Cc1cc(N)c2ccccc2[n+]1CCCCCCCCCC[n+]1c(C)cc(N)c2ccccc21      1 (yes)
 6  CC(=O)[C@@]1(O)CCC2C3C=C(Cl)C4=CC(=O)[C@@H]5CC5[C@]4(C)C3CC[C@@]21C (stereo not given in full)       0 (no)
 7           COc1cc(C(=O)N2CCOCC2)cc(OC)c1OC      1 (yes)
 8  CCc1ccc2c(O)c3c(cc2c1C(=O)OC)C(=O)c1c(O)ccc(O)c1C3=O       0 (no)
 9  CCC(=O)O[C@]1(C(=O)CCl)[C@@H](C)CC2C3CCC4=CC(=O)C=C[C@]4(C)[C@@]3(F)[C@@H](O)C[C@@]21C (stereo not given in full)       0 (no)
10  CC(=O)N1CCN(c2ccc(OCC3CO[C@](Cn4ccnc4)(c4ccc(Cl)cc4Cl)O3)cc2)CC1 (stereo not given in full)      1 (yes)
11  O=c1c(O)cccc2c(C3Oc4cc(O)cc(O)c4CC3O)cc(O)c(O)c12 (stereo not given)      1 (yes)
12  CCC(=O)OCC(=O)[C@@]1(OC(=O)CC)[C@@H](C)CC2C3CCC4=CC(=O)C=C[C@]4(C)C3(F)[C@@H](O)C[C@@]21C (stereo not given in full)       0 (no)
13                    COC1=CC(=O)C=C(OC)C1=O       0 (no)
14  O=c1c(O)cc([C@H]2Oc3cc(O)cc(O)c3C[C@H]2O)cc2c([C@H]3Oc4cc(O)cc(O)c4C[C@H]3O)cc(O)c(O)c12       0 (no)
15  CC(=O)O[C@@H]1CC2C(C)(C)CCC[C@]2(C)C2CC[C@]3(C)C(=CC(=O)O[C@H]3c3ccoc3)[C@@]21C (stereo not given in full)       0 (no)
16  COc1ccc(-c2cc(=O)c3c(O)c(OC)c(OC)cc3o2)cc1O       0 (no)
17          COc1cccc2c1CCC1=CC(=O)CC[C@@]12C       0 (no)
18     COc1ccc(-c2cc(=O)c3c(O)cc(O)cc3o2)cc1       0 (no)
19  C/C=C(/C)C(=O)O[C@@H]1Cc2c(ccc3ccc(=O)oc23)OC1(C)C       0 (no)

====

measurement-notes: chemical genetic growth profiling, strain panel (AID 1159580);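 note: tested at 20 µM; growth read once vehicle control cultures reached saturation at 30 °C; 1 = growth at the plate median or of vehicle wells; lower values mean less growth of the strain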
recorded-conditions: S. cerevisiae deletion strains, growth OD, locus YJL129C, strain trk1, stronger effect = lower value
In all, about 5,500 compounds went through this assay and about 2,000 (36%) were called active. Another 18% or so got no clear call; they are omitted. The list shows a part of the results.
Below: a set of entries, each annotated with reported normalized growth.

compound	normalized growth
COc1ccc(-c2cc(=O)c3c(O)cc(O)c(-c4cc(-c5cc(=O)c6c(O)cc(O)cc6o5)ccc4OC)c3o2)cc1	1.04
Cc1ccc(-c2nc3ccc(C)cn3c2CC(=O)N(C)C)cc1	1
CCCc1nc(C)c2c(=O)[nH]c(-c3cc(S(=O)(=O)N4CCN(CC)CC4)ccc3OCC)nn12	0.969
COc1cc(C(=O)N2CCOCC2)cc(OC)c1OC	0.958
CCCc1nn(C)c2c(=O)[nH]c(-c3cc(S(=O)(=O)N4CCN(C)CC4)ccc3OCC)nc12	0.995
COC1CC(O[C@H]2CC[C@]3(C=O)C4CC[C@]5(C)C(C6=CC(=O)OC6)CC[C@]5(O)C4CC[C@]3(O)C2)OC(C)C1O (some centres not stated)	0.958
CCC(=O)OCC(=O)[C@@]1(OC(=O)CC)[C@@H](C)CC2C3CCC4=CC(=O)C=C[C@]4(C)C3(F)[C@@H](O)C[C@@]21C (some centres not stated)	0.951
C[C@H]1[C@H](C)CC[C@]2(C(=O)O)CC[C@]3(C)C(=CCC4[C@@]5(C)C[C@@H](O)[C@H](O)[C@@](C)(CO)C5CC[C@]43C)[C@H]12 (some centres not stated)	1
Cc1c(C(N)=O)cc([N+](=O)[O-])cc1[N+](=O)[O-]	1.05
CCCCC(=O)O[C@]1(C(=O)CO)[C@@H](C)CC2C3CCC4=CC(=O)C=C[C@]4(C)[C@@]3(F)C(O)C[C@@]21C (some centres not stated)	0.943
COc1cc(O)c2c(=O)cc(-c3ccc(OC)c(-c4c(O)cc(O)c5c(=O)cc(-c6ccc(O)cc6)oc45)c3)oc2c1	1.06
NC(=O)c1ccccc1O	0.992
C/C=C/CC(C)C(O)C1C(=O)NC(CC)C(=O)N(C)CC(=O)N(C)C(CC(C)C)C(=O)NC(C(C)C)C(=O)N(C)C(CC(C)C)C(=O)NC(C)C(=O)NC(C)C(=O)N(C)C(CC(C)C)C(=O)N(C)C(CC(C)C)C(=O)N(C)C(C(C)C)C(=O)N1C (configuration not stated)	1.08
O=C(O)c1ccccc1O	0.956
CN(C)CC[C@H](c1ccc(Cl)cc1)c1ccccn1	1.01
COc1ccccc1N1CCN(CCCNc2cc(=O)n(C)c(=O)n2C)CC1	1.05
CCC(=O)OCC(=O)C1(OC(=O)CC)C(C)CC2C3CCC4=CC(=O)C=CC4(C)C3(Cl)C(O)CC21C (configuration not stated)	0.922

====

Below: a set of entries, each annotated with reported normalized growth.
measurement-notes: chemical genetic growth profiling, strain panel (AID 1159580);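 note: tested at 20 µM; growth read once vehicle control cultures reached saturation at 30 °C; 1 = growth at the plate median or of vehicle wells; lower values mean less growth of the strain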
recorded-conditions: S. cerevisiae deletion strains, growth OD, locus YJL092W, strain hpr5, stronger effect = lower value
Out of some 5,500 compounds screened, about 2,000 (36%) were called active. About 18% were inconclusive and are not listed. This is one part of the list.

compound	normalized growth
O=c1c2cc(O)c(O)cc2oc2cc(O)c(C3O[C@H](CO)[C@H](O)[C@@H](O)[C@H]3O)c(O)c12 (some centres undefined)	1.03
O=C(CCCN1CCC(O)(c2ccc(Cl)cc2)CC1)c1ccc(F)cc1	0.986
CO[C@H]1[C@@H](O)[C@@H](C)O[C@H](O[C@H]2CCC3(C)C4CCC5(C)[C@@H](C6=CC(=O)OC6)CC[C@]5(O)[C@@H]4CC[C@]3(O)C2)[C@@H]1O (some centres undefined)	1.02
NS(=O)(=O)c1cc2c(cc1C(F)(F)F)NC(Cc1ccccc1)NS2(=O)=O (centres undefined)	1
COc1c(O)cc2c(c1O)[C@H]1O[C@H](CO)[C@@H](O)[C@H](O)[C@@H]1OC2=O	1.02
O=C1CC2(CCCC2)CC(=O)N1CCCCN1CCN(c2ncccn2)CC1	1.04
COC1=CC(C)[C@@H]2C[C@H]3OC(=O)C[C@H]4C(C)=C(OC)C(=O)C([C@@]34C)[C@@]2(C)C1=O (some centres undefined)	0.975
CCCc1nn(C)c2c(=O)[nH]c(-c3cc(S(=O)(=O)N4CCN(C)CC4)ccc3OCC)nc12	0.99
O=C(CCCN1CCN(c2ccccn2)CC1)c1ccc(F)cc1	0.984
